Target: T1, non-structural protein 1 of the Dengue virus 2 (NS1-D2) (Dengue virus 2), P29990
T1 chain: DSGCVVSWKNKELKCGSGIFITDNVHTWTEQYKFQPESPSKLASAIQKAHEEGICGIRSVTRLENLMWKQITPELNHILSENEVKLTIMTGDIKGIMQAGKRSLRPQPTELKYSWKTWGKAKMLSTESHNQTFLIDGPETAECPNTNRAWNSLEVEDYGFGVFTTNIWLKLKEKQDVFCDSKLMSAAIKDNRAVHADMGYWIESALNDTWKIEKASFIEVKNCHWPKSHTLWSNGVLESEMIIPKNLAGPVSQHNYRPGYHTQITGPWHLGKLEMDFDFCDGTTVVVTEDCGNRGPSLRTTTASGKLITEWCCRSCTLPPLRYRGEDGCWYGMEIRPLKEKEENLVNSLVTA
pKd: −log10 of the molar value.
metric: pKd

binder="RVTQMNLNDRLASLYDKV (modifications not checked) [peptide identified in the Sequence Listing as SEQ ID NO: 1]" metric=pKd measurement=6.11
